Test: Two hour rat biolocalization of radionuclide compositions (Tables I, II, III)
Format: in vivo
Details: 2 h, from percent dose per gram, average of five rats
REPORTED METRIC: Bone/Blood Ratio

>>> df
                                   compound  result
0  O=P(O)(O)CN(CCN(CCN(CP(=O)(O)O)CP(=O)(O)O)CCN(CP(=O)(O)O)CP(=O)(O)O)CP(=O)(O)O.[153Sm] [Example 10]      80
1  O=P(O)(O)CN(CCN(CP(=O)(O)O)CP(=O)(O)O)CP(=O)(O)O.[153Sm] [Example 7]    1800
2  O=P(O)(O)CN(CCO)CCN(CP(=O)(O)O)CP(=O)(O)O.[153Sm] [Example 9]    1300
3  O=P(O)(O)CN(CCN(CP(=O)(O)O)CP(=O)(O)O)CP(=O)(O)O.[159Gd] [Example 14]     305
4  O=P(O)(O)CN(CCO)CCN(CP(=O)(O)O)CP(=O)(O)O.[159Gd] [Example 15]     335
5  O=P(O)(O)CN(CCN(CP(=O)(O)O)CP(=O)(O)O)CCN(CP(=O)(O)O)CP(=O)(O)O.[153Sm] [Example 8]     224
